# experiment.description: yeast display, Sf9 membrane polyspecificity reagent, FACS + sequencing; frameworks hold sequencing errors

polymer.sequence | polyreactivity (PSR sort gate)
QVQLVDSGGGLVQAGGSLRLTCAASGIIFRLYGMGWYRQAPGKEREFVATITWRGGRTNYADSVKGRFTISRDNAKNTVYLQMNSLKPEDTAVYYCAKVVRYARSNEYDSWGQGTQVTVSS | low polyreactivity
QVQLVESGGGLLQAGGSLRLSCAASGSIFSGYAMGWYRQAPGKERELVAAISGSGGSTFYADSVKGRFTISRDNAKNTVYLQMNSLKPEDTAVYYCAARRIAPYGRYDYWGQGTQVTVSS | low polyreactivity
QVQLVESGGGLVQAGGSLRLSCAASGLIFVYNDMGWYRQAPGKERELVAGITGTGGNTYYADSVKGRFTISRDNAKNTVYLQMNSLKPEDTAVYYCAAQRSVFKSFRTTYVRYDYWGQGTQVTVSS | high polyreactivity
QVQLVETGGGLVQAGGSLRLSCAASGSIFTNYVMGWYRQAPGKERELVAAINWSGGSTYYADSVKGRFTISRDNAKNTVYLQMNSLKQEDTAVYFCASESFSDGSPYNYWGQGPQVTVSS | low polyreactivity
QVQLVESGGGLVQAGGSLRLSSAASGRISGYNMGWYRQAPGKERELVAAISNGGSTNYADSVKGRFTISRDNAKNTVYLQMNSLKPEDTAVYYCNRRVPYSFYSRGYYYWGQGTQVTVSS | high polyreactivity
QVQLVESGGGLVQAGGSLRLSCAASGRTFWPNVMGWYRQAPGKERELVAAITWGDASTYYADSVKGRFTISRDNAKNTVYLQMNSLKPEDTAGYSCAASDYRSTYDYWGQGTQVTVSS | low polyreactivity
QVQLVESGGGLVQAGGSLRLSCAASGRIFSPSDMGWYRQAPGKERELVAAIRSDGGRTHYADSVKGRFTISRDNAKNTVYLQMNTLKPEDTAVYYCARDNGRTITTTDTYDYWRQGTQVTVSS | low polyreactivity
QVQLVESGGGLVQAGGSLRLSCAASGRIFYYNTMGWYREAPGTERELVAAISSGAGRTYYADSVKGRFTISRDNAMNTVYLQMNSLKPEDTAVYYCAARFYVIKWYDYWGQGTQVTVSS | high polyreactivity
QVQLVESGGGLVQAGGSLRLSCAASGYISSYNPMGWSRQAPGKERELVASITRGGSTYYADSVKGRFTISRDNAKNTVYLQMNSLKPEDTAVYYCAADTLRQYDYEYWGQGTQVTVSS | high polyreactivity
QVQLVESGGGLVQAGGSLRLSCAASGNIFPYYTLGWYRKAPGKEREWVAAITIGGSTYYADSEKGRFTISRDNAKNTVYLQMNSLKPEDTAVYYCAARSRYYDTRFEYWGQGTQVTVSS | low polyreactivity
QVQLVESGGCLVQAGGRLRLSCAASGSTFRSYTMVWYRQAPGKERELVADINGTGGSTYYADSVKGRFTISRDNAKNTVYLHMNSLKPEDTAVYYCAADGYFRTVTSGWALRMGYWGQGTQVTVSS | high polyreactivity
QVQLVESGGGLVQARGSLRLSCAASGSIFRGYGMRRYIQAPGKERELVAAINYSGGSTYYADSVKGRFTISRDNAKNTVYLQMNSLKPEDTGVYYCNNDYYRQRGEYYYWGQGTQVTVSS | high polyreactivity
QVQLVESGGGLVQAGGSLRLSCAASGFIFWQNAMGWSRQAPGKEREWVADISWSGGGSTYYADSVKGRFTISRDNAKNTVYLQMNSLKPADTALYYCAASQVYSYYGTYYSAYDYWGQGTQVTVSS | low polyreactivity
QVQLHESGGGLVQAGGSLRLRCAASGTISYAGPMGWYRQAPGKEREFGAGIGVGSNTNYADSVKGRYTIIRDNAKNTVFLQMNSLKPEDTAVYYCAVGGYAPLGRPYWGQGTQVTVSS | low polyreactivity
QVQLVESGGGLVQAGGSLRLSCAASGSIFRVYAMGWYRQAPGKERELVAAISKSGSSTYYADSVKGRFTISRDNAKNTVYLQMNSLKPEDTAVYYCAARRVLGEYGYWGQGTQVTVSS | high polyreactivity
QVQLVDSGGGLVQAGGSLRLSCAASGSTFLAYAMGSSRQAPGKQTELVAAITWNSCSSTFYADSVKGRFTISRDNAKNSVYLQMNSLKPEDTAVYYCNADVPSPAYYGDGTPYREDNYWGQGTQVTVSS | low polyreactivity
QVQLVESGGGLVQAGGSLRLSCAASGRTFVYYAMGWYRQAPGKEREFVAAISRSGGRTSYADSVKGRFTISRDNAKNTVYLQMNSLKPEDTAVYYCAAEKRTQPTSREYYWVQGTQVTVSS | high polyreactivity
QVQLVESGGGLVQAGGSLRLSCAASGSTFSPNVMGWYRQAPGKERELVAAISSSTGSTNYADSVKGRFTISRDNAKNTVYLQMNSLKPEDTAVDYCAVDPYVHWTTKLYDYWGQGTLVTVSS | low polyreactivity
QVQLVESGGGLVQAGGSLRLSCAASGLTFPYYAMGWYRQAPGTERELVAAISGGGRTYYADSVKGRFTISRDNAKNTVYLQMNSLKPEDTAVYYCAPFHVGRYTGTVTDGYDYWGQGTQVTVSS | high polyreactivity
QVQLVESGGGLVQAGGSLRLSCAASGFIFTSYAMGWYRQAPGKERELVAAITDGGSTNYADSVKGRFTISRDNAKNTVYLQMNSLKPEDTAVFYCAADGFKTVLPEYDYWGQGTQVTVSS | low polyreactivity
QVQLLESGGGLVQAGGSLRLSCAASGITFSRNAMGWYRQAPGKERELVATITSGGSTNYADSVKGRFTITRDNAMNTVYLQMISLKPEDTAVYYCYAVWNTFISGRSYEYWGQGTQVTVSS | low polyreactivity
